- Test system: NCI-H226
- Method: NCI tumour cell line growth inhibition, 48 h
Active and inactive are the calls of the source. Rule as the data show it: active = GI50 up to about 1.1 µM and inactive = higher.
Valid outcomes are listed here; reply with one: Yes = active, No = inactive

Consider the following illustrative entries.
[[record]]
molecule = "CC(=O)/N=C1/N(/C=C2\\C(=O)Oc3ccccc3C2=O)C(=O)/C(=C/c2ccc(NC(C)=O)cc2)N1C"
assigned_category = "No"

[[record]]
molecule = "NC1=NCN(C2OC(CO)C(O)C2O)C(=O)N1 (stereo not drawn)"
assigned_category = "No"

[[record]]
molecule = "CCOP(=O)(OCC)C1=C(c2ccccc2)OC(N)=C(C#N)C1c1ccc(Cl)cc1 (stereo not drawn)"
assigned_category = "No"


Per the assay record, what outcome was assigned to O=C(O)CCNS(=O)(=O)c1ccc2ccccc2c1 ?
No

Per the assay record, what outcome was assigned to CC(C)(C)OC(=O)NC1CCCC1=O (stereo not drawn) ?
No

Per the assay record, what outcome was assigned to Cc1cc(O)c(C(C)C)cc1C1(c2cc(C(C)C)c(O)cc2C)OC(=O)c2ccccc21 ?
No

Per the assay record, what outcome was assigned to CCCCCCCCCCCCCCCCCCNc1ccn(C2OC(COP(=O)(O)OCC3OC(n4cc(C)c(=O)[nH]c4=O)CC3N=[N+]=[N-])C(O)C2O)c(=O)n1 (stereo not drawn) ?
No

Per the assay record, what outcome was assigned to CCOC(=O)c1nc2c(nc1C(=O)OCC)C(=O)c1ccccc1C2=O ?
Yes

* * *

- System: SK-OV-3
- Method: NCI tumour cell line growth inhibition, 48 h
Activity calls are given as the source filed them. No stated cut-off is given here; in the data, active = GI50 up to about 1.1 µM and inactive = higher. *1 amine or outer side, *2 acyl side, *3 side chain or, on linkers, in order; H or OH if unused. Where a SMILES comes first, the peptide text is derived from it. Bridges are numbered along the chain shown (N, C = ends). Roman numbers before positions name the chains, in order. [ ]: non-standard residue; d: D form. Actinocin(9to1) = Cc1c2oc3c(C)ccc(C(=O)[*:1])c3nc-2c(C(=O)[*:2])c(N)c1=O; NMeV = CN[CH](C(=O)O)C(C)C; Sar = CNCC(=O)O
Valid outcomes are listed here; reply with one: Y for active, N for inactive

Consider the following illustrative entries.
[[record]]
molecule = "O=c1c2c(nc3n1CCC3)sc1c(O)c(Br)ccc12"
assigned_category = "N"

[[record]]
molecule = "O=C1NC(=S)N(c2cccc3ccccc23)C(=O)/C1=C/c1c[nH]c2ccccc12"
assigned_category = "N"

[[record]]
molecule = "c1ccc([P+](Cc2ccc(C[P+](c3ccccc3)(c3ccccc3)c3ccccc3)s2)(c2ccccc2)c2ccccc2)cc1"
assigned_category = "N"

[[record]]
molecule = "Nc1nc(N)nc(-c2cnccn2)n1"
assigned_category = "N"

[[record]]
molecule = "O=C(O)/C(=C\\c1ccncc1)c1cccc2ccccc12"
assigned_category = "N"


Per the assay record, what outcome was assigned to O=C(NCCN1CCCCC1)c1ccc(Br)cc1 ?
N

Per the assay record, what outcome was assigned to CCOC(=O)/C=C(/OCC)[C@@H]1C(C(=O)c2ccc(Cl)cc2)[C@@H]1/C(=C\C(=O)OCC)OCC (some centres not stated) ?
N

Per the assay record, what outcome was assigned to OCC(O)COCn1cc(Cn2ncc3c(SCc4ccccc4)ncnc32)nn1 (configuration not stated) ?
N

Per the assay record, what outcome was assigned to Oc1ccc(Cl)cc1C1=NC(NCNC2=NC(c3ccccc3)CC(c3cc(Cl)ccc3O)=N2)=NC(c2ccccc2)C1 (configuration not stated) ?
N

Per the assay record, what outcome was assigned to COc1ccc([Se][Se]c2ccc(OC)cc2OC)c(OC)c1 ?
N

Per the assay record, what outcome was assigned to CC(C)(Br)C1(O)CCCN1C(=O)c1ccccc1 (configuration not stated) ?
N

Per the assay record, what outcome was assigned to N/N=C(/Cc1nc2ccc(C(=O)c3ccccc3)cc2nc1O)C(=O)Nc1ccc([N+](=O)[O-])cc1[N+](=O)[O-] ?
N

Per the assay record, what outcome was assigned to NC(=S)N/N=C1/CCCC2CCCC[C@@H]12 (some centres not stated) ?
N

Per the assay record, what outcome was assigned to NC(=O)NNCc1ccccc1 ?
N

Per the assay record, what outcome was assigned to Cc1c2oc3c(C)ccc(C(=O)NC4C(=O)NC(Cc5ccccc5)C(=O)N5CCCC5C(=O)N(C)CC(=O)N(C)C(C(C)C)C(=O)OC4C)c3nc-2c(C(=O)NC2C(=O)NC(Cc3ccccc3)C(=O)N3CCCC3C(=O)N(C)CC(=O)N(C)C(C(C)C)C(=O)OC2C)c(N)c1=O (configuration not stated) (I: TFP[Sar][NMeV] / II: TFP[Sar][NMeV]; ester I:1-I:C, II:1-II:C; linker I:N-II:N via Actinocin(9to1); configuration not given here) ?
Y
